subjectOfTest: TLR8 (Homo sapiens, UniProt Q9NR97)
Sequence (Q9NR97 27-1041): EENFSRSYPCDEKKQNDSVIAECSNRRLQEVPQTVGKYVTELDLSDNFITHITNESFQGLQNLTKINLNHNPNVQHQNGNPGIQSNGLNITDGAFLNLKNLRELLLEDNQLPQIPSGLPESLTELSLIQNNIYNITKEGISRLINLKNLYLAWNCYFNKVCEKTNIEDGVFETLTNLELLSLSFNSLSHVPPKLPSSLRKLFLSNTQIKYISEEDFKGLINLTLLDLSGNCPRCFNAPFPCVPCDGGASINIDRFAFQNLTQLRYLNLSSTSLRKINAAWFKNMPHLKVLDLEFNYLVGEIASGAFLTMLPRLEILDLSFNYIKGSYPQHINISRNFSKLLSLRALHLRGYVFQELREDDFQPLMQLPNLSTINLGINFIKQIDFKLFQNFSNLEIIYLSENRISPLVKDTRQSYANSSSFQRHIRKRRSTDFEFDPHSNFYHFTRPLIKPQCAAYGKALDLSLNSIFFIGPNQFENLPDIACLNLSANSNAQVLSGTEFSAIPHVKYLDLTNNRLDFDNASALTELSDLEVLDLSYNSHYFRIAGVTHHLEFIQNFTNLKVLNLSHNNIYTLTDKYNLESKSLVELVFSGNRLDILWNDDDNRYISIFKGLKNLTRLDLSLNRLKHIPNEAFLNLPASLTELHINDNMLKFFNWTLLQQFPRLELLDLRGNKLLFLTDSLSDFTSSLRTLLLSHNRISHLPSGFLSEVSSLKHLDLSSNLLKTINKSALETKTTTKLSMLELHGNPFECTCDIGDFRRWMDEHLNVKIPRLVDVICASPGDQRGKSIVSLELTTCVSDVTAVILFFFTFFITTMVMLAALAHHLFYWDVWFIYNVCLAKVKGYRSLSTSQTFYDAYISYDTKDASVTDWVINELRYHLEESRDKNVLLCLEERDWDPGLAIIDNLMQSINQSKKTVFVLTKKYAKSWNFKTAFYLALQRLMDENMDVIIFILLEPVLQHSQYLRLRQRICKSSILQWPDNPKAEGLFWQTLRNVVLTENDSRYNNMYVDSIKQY
testMethodNotes: HEK/293 TLR8 Cell Assay
particulars: HEK cells, R848 agonist 30 uM final concentration, Steady-Glo readout; read-out: TLR8 potency
quantityKind: IC50

[[record]]
compound = "C[C@@H]1CN(c2ccc(C#N)c3nccnc23)C[C@H](C(=O)N[C@H]2CCN(CC3CC3)C2)O1 (single isomer, unassigned)"
quantitykind = "IC50"
recordedmeasurement = "< 75 nM"

[[record]]
compound = "C[C@@H]1CN(c2ccc(C(F)(F)F)c3ncccc23)C[C@H](CN2CCC(C(C)(C)O)C2)O1 (some centres unmarked)"
quantitykind = "IC50"
recordedmeasurement = "75 to 150 nM"

[[record]]
compound = "C[C@H]1C[C@@H](NC(=O)C[C@H](O)CN(C)C)CN(c2ccc(C#N)c3nccnc23)C1"
quantitykind = "IC50"
recordedmeasurement = "< 75 nM"

[[record]]
compound = "C[C@@H]1CN(c2ccc(C#N)c3ncncc23)C[C@H](CNC(=O)[C@]2(F)CCNC2)O1 (single isomer, unassigned)"
quantitykind = "IC50"
recordedmeasurement = "< 75 nM"

[[record]]
compound = "CCN(CC)CCO[C@@H]1C[C@H](C)CN(c2ccc(C(F)(F)F)c3ncccc23)C1 (relative stereo)"
quantitykind = "IC50"
recordedmeasurement = "< 75 nM"

[[record]]
compound = "N#Cc1ccc(N2C[C@@H](CN3CCC4(CC3)CC(=O)N4)O[C@@H](C(F)(F)F)C2)c2nccnc12 (single isomer, unassigned)"
quantitykind = "IC50"
recordedmeasurement = "> 150 nM"

[[record]]
compound = "CCN(C)CCNC(=O)[C@H]1CN(c2ccc(C#N)c3nccnc23)C[C@@H](C)O1"
quantitykind = "IC50"
recordedmeasurement = "< 75 nM"

[[record]]
compound = "Cc1c(F)cc(N2C[C@@H](C)C[C@@H](NC(=O)[C@@H](N)CC(N)=O)C2)c2cccnc12"
quantitykind = "IC50"
recordedmeasurement = "< 75 nM"

[[record]]
compound = "CN1CC[C@@](F)(CNC(=O)[C@@H]2CN(c3ccc(C#N)c4nccnc34)C[C@H](C(F)(F)F)O2)C1 (single isomer, unassigned)"
quantitykind = "IC50"
recordedmeasurement = "< 75 nM"

[[record]]
compound = "C[C@H]1C[C@@H](NC(=O)[C@H]2COCCN2)CN(c2ccc(C#N)c3nccnc23)C1"
quantitykind = "IC50"
recordedmeasurement = "< 75 nM"

[[record]]
compound = "C[C@H]1C[C@@H](NCCC(C)(C)O)CN(c2ccc(C(F)(F)F)c3ncccc23)C1"
quantitykind = "IC50"
recordedmeasurement = "< 75 nM"

[[record]]
compound = "CN[C@@H](CO)C(=O)N[C@@H]1C[C@H](C)CN(c2ccc(C(F)(F)F)c3ncccc23)C1"
quantitykind = "IC50"
recordedmeasurement = "75 to 150 nM"

[[record]]
compound = "C[C@H]1C[C@@H](OCCN2CCCCC2)CN(c2ccc(C#N)c3nccnc23)C1"
quantitykind = "IC50"
recordedmeasurement = "< 75 nM"

[[record]]
compound = "C[C@H]1C[C@@H](NC(=O)CCN(C)C)CN(c2ccc(C(F)(F)F)c3ncccc23)C1"
quantitykind = "IC50"
recordedmeasurement = "< 75 nM"


====

// reported pIC50 for each item listed
subjectOfTest: UniProt:Q9NYK1
Sequence (Q9NYK1 27-1049): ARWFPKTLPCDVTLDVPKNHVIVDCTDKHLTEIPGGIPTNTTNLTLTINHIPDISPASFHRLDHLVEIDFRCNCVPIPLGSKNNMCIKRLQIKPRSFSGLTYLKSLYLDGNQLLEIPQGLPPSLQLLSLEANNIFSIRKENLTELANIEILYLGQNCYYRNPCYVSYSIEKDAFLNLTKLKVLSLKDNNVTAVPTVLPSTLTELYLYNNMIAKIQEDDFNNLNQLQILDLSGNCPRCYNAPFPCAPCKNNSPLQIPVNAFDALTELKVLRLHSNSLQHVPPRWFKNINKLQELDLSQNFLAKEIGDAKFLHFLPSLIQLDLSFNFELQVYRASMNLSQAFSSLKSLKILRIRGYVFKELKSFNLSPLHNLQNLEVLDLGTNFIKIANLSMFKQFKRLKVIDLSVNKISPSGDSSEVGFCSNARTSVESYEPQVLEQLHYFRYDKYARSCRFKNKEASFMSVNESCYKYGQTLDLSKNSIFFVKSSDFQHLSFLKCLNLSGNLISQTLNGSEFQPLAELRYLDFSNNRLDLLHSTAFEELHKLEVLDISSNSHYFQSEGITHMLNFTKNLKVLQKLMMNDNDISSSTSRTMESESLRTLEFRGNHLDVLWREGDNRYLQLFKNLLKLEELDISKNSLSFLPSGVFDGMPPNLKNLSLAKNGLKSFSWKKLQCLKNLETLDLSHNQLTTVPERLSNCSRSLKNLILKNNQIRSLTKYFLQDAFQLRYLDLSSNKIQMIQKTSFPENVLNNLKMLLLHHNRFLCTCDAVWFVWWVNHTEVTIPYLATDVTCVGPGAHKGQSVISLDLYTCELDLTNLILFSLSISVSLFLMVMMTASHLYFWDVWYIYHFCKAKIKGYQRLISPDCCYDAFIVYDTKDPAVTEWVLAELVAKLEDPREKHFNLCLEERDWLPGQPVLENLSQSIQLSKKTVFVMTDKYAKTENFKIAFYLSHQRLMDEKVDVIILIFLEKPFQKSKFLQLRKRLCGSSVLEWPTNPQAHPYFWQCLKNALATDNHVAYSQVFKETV
testMethodNotes: HEK/293 TLR7 Cell Assay
particulars: TLR7/NFKb HEK cells, R848 agonist 10 uM final concentration, Steady-Glo readout; read-out: TLR7 potency
pIC50: −log10 of the molar value.
quantityKind: pIC50

[[record]]
smilesinput = "C[C@H]1C[C@@H](NS(=O)(=O)NC(=O)CN2CCOCC2)CN(c2ccc(C(F)(F)F)c3ncccc23)C1"
recordedmeasurement = "6.82 to 7.12"

[[record]]
smilesinput = "C[C@@H]1CN(c2cnc(C#N)c3ncccc23)C[C@H](C(=O)NCC2(F)CCNCC2)O1"
recordedmeasurement = "> 7.12"

[[record]]
smilesinput = "C[C@H]1C[C@@H](NC(=O)CCS(=O)(=O)N(C)C)CN(c2ccc(C#N)c3nccnc23)C1"
recordedmeasurement = "6.82 to 7.12"

[[record]]
smilesinput = "C[C@@H]1CN(c2cnc(C#N)c3ncccc23)C[C@H](C(=O)NCC2(F)CNC2)O1"
recordedmeasurement = "> 7.12"


====

subjectOfTest: TLR7 (Homo sapiens, UniProt Q9NYK1)
Sequence (Q9NYK1 27-1049): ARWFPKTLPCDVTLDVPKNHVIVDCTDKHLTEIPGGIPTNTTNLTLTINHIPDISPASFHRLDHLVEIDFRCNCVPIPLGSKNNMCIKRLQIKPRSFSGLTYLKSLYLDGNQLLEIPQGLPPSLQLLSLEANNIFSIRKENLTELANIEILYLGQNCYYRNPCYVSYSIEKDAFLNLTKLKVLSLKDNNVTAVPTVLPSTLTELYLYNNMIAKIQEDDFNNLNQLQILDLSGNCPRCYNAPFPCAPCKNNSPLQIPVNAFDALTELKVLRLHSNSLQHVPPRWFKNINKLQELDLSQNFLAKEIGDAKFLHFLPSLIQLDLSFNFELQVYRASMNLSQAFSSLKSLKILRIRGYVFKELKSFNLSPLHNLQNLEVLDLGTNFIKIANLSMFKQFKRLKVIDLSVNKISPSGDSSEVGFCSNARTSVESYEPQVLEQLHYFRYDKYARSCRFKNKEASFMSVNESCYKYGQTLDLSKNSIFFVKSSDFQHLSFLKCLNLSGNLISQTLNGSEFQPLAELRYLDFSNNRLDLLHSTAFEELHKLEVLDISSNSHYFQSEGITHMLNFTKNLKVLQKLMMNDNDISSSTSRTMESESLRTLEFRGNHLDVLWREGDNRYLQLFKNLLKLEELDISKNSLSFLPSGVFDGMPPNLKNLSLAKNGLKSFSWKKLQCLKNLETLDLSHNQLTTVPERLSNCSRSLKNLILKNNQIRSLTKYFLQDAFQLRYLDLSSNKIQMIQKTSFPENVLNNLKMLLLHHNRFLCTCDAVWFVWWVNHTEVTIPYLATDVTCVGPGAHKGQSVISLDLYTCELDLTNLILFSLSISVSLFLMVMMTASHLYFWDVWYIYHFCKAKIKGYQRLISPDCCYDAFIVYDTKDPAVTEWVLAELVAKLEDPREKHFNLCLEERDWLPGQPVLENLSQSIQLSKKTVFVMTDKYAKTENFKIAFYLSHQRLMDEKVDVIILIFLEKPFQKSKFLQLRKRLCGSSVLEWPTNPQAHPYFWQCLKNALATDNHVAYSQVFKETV
testMethodNotes: HEK/293 TLR7 Cell Assay
particulars: TLR7/NFKb HEK cells, R848 agonist 10 uM final concentration, Steady-Glo readout; read-out: TLR7 potency
quantityKind: IC50

[[record]]
compound = "C[C@@H]1CN(c2ccc(C#N)c3nccnc23)C[C@H](C(=O)NC2CCC(=O)NC2=O)O1 (stereo partly shown) [Example 236]"
recordedmeasurement = "75 to 150 nM"

[[record]]
compound = "C[C@H]1C[C@@H](NCCC(=O)NO)CN(c2ccc(C(F)(F)F)c3ncccc23)C1 [Example 36]"
recordedmeasurement = "< 75 nM"

[[record]]
compound = "C[C@@H]1CN(c2ccc(C#N)c3nccnc23)C[C@H](CNC(=O)[C@@H](C)O)O1 (single isomer, unassigned) [Example 340]"
recordedmeasurement = "> 150 nM"

[[record]]
compound = "C[C@H]1C[C@@H](NC(=O)[C@H]2CCCN2)CN(c2ccc(C(F)(F)F)c3ncccc23)C1 [Example 177]"
recordedmeasurement = "75 to 150 nM"

